Please find below IC50 data on MAPKAPK2 (Homo sapiens) compiled from the literature.
Sequence (P49137 whole entry, species assumed): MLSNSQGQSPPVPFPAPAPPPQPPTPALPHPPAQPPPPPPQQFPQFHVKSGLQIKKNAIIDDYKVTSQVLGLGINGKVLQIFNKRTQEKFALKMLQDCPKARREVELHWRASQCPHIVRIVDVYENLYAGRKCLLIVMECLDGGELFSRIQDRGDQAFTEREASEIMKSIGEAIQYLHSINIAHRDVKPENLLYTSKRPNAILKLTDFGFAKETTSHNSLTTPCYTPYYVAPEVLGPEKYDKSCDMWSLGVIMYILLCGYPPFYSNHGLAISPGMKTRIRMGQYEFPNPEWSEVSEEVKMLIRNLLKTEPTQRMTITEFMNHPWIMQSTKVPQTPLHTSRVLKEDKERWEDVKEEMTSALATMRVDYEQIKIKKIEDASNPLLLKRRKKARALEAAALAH
valueKind: IC50

compound=COc1ccc(-c2cc3c(cn2)CCc2c-3nn3c2C(=O)NC2(CN(C(C)=O)C2)C3)cc1 recordedmeasurement="> 10 nM"
compound="COc1ccc(-c2cc3c(cn2)CCc2c-3[nH]c3c2C(=O)N[C@@H]2CC[C@H]32)cc1 (racemic)" recordedmeasurement="21 nM"
compound=CC(C)(N)CCc1ccc(-c2cc3c(cn2)CCc2c-3[nH]c3c2C(=O)NC2(CC2)C3)cc1 recordedmeasurement="18 nM"
compound=CN(C)C[C@@H]1CN(c2ccc3c(c2)Cn2cc(-c4ccc(F)cc4)cc2-c2nccn2-3)C[C@H]1O recordedmeasurement="< 50 nM"
compound=CNC[C@H]1CN(c2ccc3c(c2)Cn2cc(-c4ccc(F)cc4)cc2-c2nccn2-3)C[C@H]1F recordedmeasurement="< 50 nM"
compound=C[C@@H](CO)N1CC2(CCN(c3ccc4c(c3)Cn3cc(-c5ccc(F)cc5)cc3-c3nccn3-4)C2)C1 recordedmeasurement="< 50 nM"
compound=CC(=O)N1CCN([C@H]2C[C@H](n3cc(-c4cc(OC[C@@H]5CCCO5)ccc4F)c4c(N)ncnc43)C2)CC1 recordedmeasurement="> 10000 nM"
compound=CN(C)C[C@@H]1CCN(c2ccc3c(c2)Cn2cc(-c4ccc(C#N)cc4)cc2-c2nnnn2-3)C1 recordedmeasurement="< 50 nM"
compound=Fc1ccc(-c2cc3n(c2)Cc2cc(N4CC5(CCNC5)C4)ccc2-n2nnnc2-3)cc1 recordedmeasurement="50 to 100 nM"
compound=C[C@@H]1CN(c2ccc3c(c2)Cn2cc(-c4ccc(F)cc4)cc2-c2nnnn2-3)C[C@H](C)N1 recordedmeasurement="< 50 nM"
compound=CN(C)[C@@H]1CN(c2ccc3c(n2)Cn2cc(-c4ccc(C#N)cc4)cc2-c2nccn2-3)C[C@@H]1O recordedmeasurement="50 to 100 nM"
compound=O=C1NC2(CCC2)Cc2[nH]c3c(c21)CCc1cnc(-c2ccc(CN4CCOCC4)c(F)c2)cc1-3 recordedmeasurement="84 nM"
compound=CN1CC2(CCN(c3ccc4c(c3)Cn3cc(-c5ccc(F)cc5)cc3-c3nccn3-4)C2)C1 recordedmeasurement="< 50 nM"
compound=CN(C)[C@@H]1CCN(c2ccc3c(c2)Cn2cc(-c4ccc(F)cc4)cc2-c2nnnn2-3)C1 recordedmeasurement="< 50 nM"
compound=CN1CC2(CNC(=O)c3c4c(n(C)c32)-c2nc(-c3cccc(F)c3)ncc2CC4)C1 recordedmeasurement="22 nM"
